Metric: melting point

q: // melting point lookup, key: Cl.c1ccc(C2CCN(CC3Cc4ccccc4C3)CC2)cc1
a: > 240 °C

q: For COc1cccc2c1CCC(CN1CCC(c3ccccc3)CC1)CC2O (racemic) [Example 10] , what is its reported melting point?
a: 46 to 48 °C

q: Consider the compound shown here: Cl.Oc1cccc2c1CC[C@@H](CN1CCC(c3ccccc3)CC1)C[C@H]2O (racemic) What is its recorded melting point?
a: 190 to 193 °C

q: # input compound: Cl.O[C@@H]1C[C@@H](CN2CCC(c3ccccc3)CC2)CCc2ccccc21 (racemic) ; wanted: its melting point
a: > 250 °C

q: Given the compound Cc1cc(C)c2c(c1)C(=O)CC(CN1CCC(c3ccccc3)CC1)CC2.Cl (racemic) , what is its reported melting point?
a: 222 to 225 °C

q: I have this compound here, Cl.OC1CC(CN2CCC(c3ccccc3)CC2)CCc2c(F)cccc21 (racemic) , and I need its recorded melting point.
a: 218 to 220 °C

q: Recorded melting point of COc1ccc2c(c1)C(O)CC(CN1CCC(c3ccccc3)CC1)CC2 (racemic) [Example 11] , please.
a: 45 to 48 °C

q: Need melting point, item Cl.O=C1CC(CN2CCC(c3ccccc3O)CC2)CCc2ccccc21 (racemic)
a: 216 to 218 °C

q: # get_value(readout='melting point', item= Cl.OC1CC(CN2CCC(c3ccc(F)cc3)CC2)CCc2ccccc21 (racemic) )
a: 227 to 229 °C

q: GET /values?readout=melting point&item= COc1cc(OC)cc(C2CCN(CC3CCc4ccccc4C(O)C3)CC2)c1.Cl (racemic)
a: 223 to 225 °C
